B1: r16_88_TrROS_Hall (parent)
chain: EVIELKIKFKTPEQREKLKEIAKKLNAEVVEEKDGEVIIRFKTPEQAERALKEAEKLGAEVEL

# Variants of: B1
# measurementNotes: folding stability dG (cDNA display proteolysis); higher = more stable
# experimentalContext: PBS, room temperature
Please respond with reported folding stability dG for every item in the list.
Numbers only, in kJ/mol.

Task item: Consider the variant shown here: EVIELKIKFKTPEQREKLKEYAKKLNAEVVEEKDGEVIIRFKTPEQAERALKEAEKLGAEVEL [I21Y] What is its recorded folding stability dG?
Reply: 20

Task item: Consider next the variant EVIELKIKFKTPEQREKLKEIAKKLNAEVVEEKDGEVIIRFKFPEQAERALKEAEKLGAEVEL [T43F] in the same way.
Reply: 18.5

Task item: What do you have for EVIELKIKFKTPEQREKLKEIAKKLNAEVVEEKDGEVIIRFKTPEQAERALKEARKLGAEVEL [E55R] ?
Reply: 19.1

Task item: Repeat for the following variant: EVIELKIKFKTPEQREKLKEIAKKLNAEVVEEKDGEVIIRFKTPEQAERALKELEKLGAEVEL [A54L]
Reply: 18.2

Task item: What do we get for EVIELKIKFKTPEQREKLKEIAVKLNAEVVEEKDGEVIIRFKTPEQAERALKEAEKLGAEVEL [K23V] ?
Reply: 19.3

Task item: Please answer likewise for EVIELKIKFKTPEQREKLKEIAKKLNAEVVTEKDGEVIIRFKTPEQAERALKEAEKLGAEVEL [E31T]
Reply: 18.2

For every record below, what is its folding stability dG?
1. EVIELKIKFKTPEQREKLKEIAKKLNAEVVEEKDGEVIERFKTPEQAERALKEAEKLGAEVEL [I39E]
2. EVIELKIKFKTPEQREKLKEIAKKLNAEVVEEKDNEVIIRFKTPEQAERALKEAEKLGAEVEL [G35N]
3. EVIELKIKFKTPEQREKLKEIAKKLNAEVVEEKDGEVWIRFKTPEQAERALKEAEKLGAEVEL [I38W]

Reply:
[11.2, 18.1, 20.8]

Below are 2 variants. Give each one its folding stability dG.
1. EVIELKIKFKTPEQREKLKEIAKKLNAEVMEEKDGEVIIRFKTPEQAERALKEAEKLGAEVEL [V30M]
2. EVIELKIKFKTPEQREKLKEIAKKLNAEVVEEKDREVIIRFKTPEQAERALKEAEKLGAEVEL [G35R]

Reply:
1. 18.8
2. 18.5

Taken from the MegaScale stability set (Tsuboyama et al. 2023).
